# target_under_test: T1, human CXCR4 (chemokine (C-X-C motif) receptor 4) (human, UniProt P61073 1-352)
# T1 construct: Endogenous on human tumour cell lines (Ramos, HPB-ALL, Raji, Jurkat, MM1.S, RPMI-8226, MOLP-8, MOLT-4) or transfected into CHO-K1 cells (DiscoveRx); also called CXCR4 receptor
# assay_text: flow cytometry on HPB-ALL cells, Fab at 0.25 µg/mL
# strict inequality: MFI < 3000 yields true (1), everything else yields false (0)

Field: below-cutoff. Rule: recorded MFI strictly less than 3000. Subject: h3G10.A57 VH / h3G10.A58A VL Fab (Fab, V domains shown, Tested as Fab) VH: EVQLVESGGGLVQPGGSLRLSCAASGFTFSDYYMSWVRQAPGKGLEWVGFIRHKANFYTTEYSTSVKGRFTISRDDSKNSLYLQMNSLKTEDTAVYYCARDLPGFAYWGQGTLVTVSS VL: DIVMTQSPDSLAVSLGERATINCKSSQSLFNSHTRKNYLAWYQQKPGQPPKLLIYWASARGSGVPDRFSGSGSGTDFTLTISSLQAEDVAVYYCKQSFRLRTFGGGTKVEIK
false (0)

Next:
Field: below-cutoff. Rule: recorded MFI strictly less than 3000. Subject: h3G10.A57 VH / h3G10.2.72 VL Fab (Fab, V domains shown, Tested as Fab) VH: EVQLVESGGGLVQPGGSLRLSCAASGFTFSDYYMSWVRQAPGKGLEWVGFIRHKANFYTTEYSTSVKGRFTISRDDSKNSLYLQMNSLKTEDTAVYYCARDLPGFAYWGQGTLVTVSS VL: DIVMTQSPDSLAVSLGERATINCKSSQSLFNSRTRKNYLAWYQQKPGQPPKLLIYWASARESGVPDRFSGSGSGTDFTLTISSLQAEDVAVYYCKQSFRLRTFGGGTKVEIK
true (1)

Field: below-cutoff. Rule: recorded MFI strictly less than 3000. Subject: h3G10.1.91 VH / h3G10.A58B VL Fab (Fab, V domains shown, Tested as Fab) VH: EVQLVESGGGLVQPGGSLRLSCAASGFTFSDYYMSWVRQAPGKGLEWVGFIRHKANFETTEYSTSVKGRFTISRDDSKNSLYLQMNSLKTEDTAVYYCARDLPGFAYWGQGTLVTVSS VL: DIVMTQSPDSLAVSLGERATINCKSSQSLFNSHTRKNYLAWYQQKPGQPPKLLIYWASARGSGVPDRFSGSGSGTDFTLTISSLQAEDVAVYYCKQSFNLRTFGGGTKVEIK
false (0)

Field: below-cutoff. Rule: recorded MFI strictly less than 3000. Subject: h3G10.2.37 VH / h3G10.2.72 VL Fab (Fab, V domains shown, Tested as Fab) VH: EVQLVESGGGLVQPGGSLRLSCAASGFTFSDYYMSWVRQAPGKGLEWVGFIRHKANFYTREYSTSVKGRFTISRDDSKNSLYLQMNSLKTEDTAVYYCARDLPGFAYWGQGTLVTVSS VL: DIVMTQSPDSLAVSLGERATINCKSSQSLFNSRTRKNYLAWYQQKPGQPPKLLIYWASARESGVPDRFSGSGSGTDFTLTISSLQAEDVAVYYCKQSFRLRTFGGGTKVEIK
true (1)

Field: below-cutoff. Rule: recorded MFI strictly less than 3000. Subject: h3G10.2.37 VH / h3G10.A58B VL Fab (Fab, V domains shown, Tested as Fab) VH: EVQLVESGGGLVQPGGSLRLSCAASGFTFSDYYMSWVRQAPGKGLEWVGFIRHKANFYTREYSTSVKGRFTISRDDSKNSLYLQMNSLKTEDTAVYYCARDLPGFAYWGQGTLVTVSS VL: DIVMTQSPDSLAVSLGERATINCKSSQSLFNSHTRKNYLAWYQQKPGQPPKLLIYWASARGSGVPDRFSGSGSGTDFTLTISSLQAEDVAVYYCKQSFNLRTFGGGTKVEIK
false (0)
